B1: tRNA (parent)
chain: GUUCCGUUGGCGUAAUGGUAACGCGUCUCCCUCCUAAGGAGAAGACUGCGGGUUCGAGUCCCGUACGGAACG

Variants of: B1
Assay: yeast fitness relative to wild type (ratio to wild type); higher = fitter; tRNA-Arg(CCU), competitive growth, 37 C, YPD
Fewer inactive variants are shown than the library holds.
I would appreciate it if you labelled entries label 1 when yeast fitness is 0.6 or higher, otherwise label 0.

As a guide, the following entries are already answered.
U28C C60G
label 0
U19A C24G G25A C46G G52A A65C
label 0
C4U G44A C61G
label 0
C27A A43U U64C
label 1

Data request: I'd appreciate it if you could say whether C11U A57U has yeast fitness at least equal to 0.6.
Data returned: label 1

Data request: Please do the same for A15G C27A as well.
Data returned: label 1
